assay.method.text: Mycobacterium tuberculosis growth inhibition, primary screen (AID 1259343)
condition.label: at 10 µM
About 2,900 (47%) of roughly 6,200 compounds were called active. Rule as the data show it: active = inhibition above about 50%; inactive = the rest. The set was probably picked from earlier hits. Some of the results follow.
Possible outcomes: label 1 (active), label 0 (inactive)

structure.smiles.string: O=C(C1CCCC1)N1CCN(c2nc(-c3ccccc3Cl)nc3cc(Cl)ccc23)CC1
class: label 0

structure.smiles.string: COc1ccc2c(Cl)c(C(=O)O)sc2c1Cl
class: label 0

structure.smiles.string: Cc1ccc(-c2n[nH]c(=S)c3ccccc23)cc1
class: label 0

structure.smiles.string: Cc1nn(-c2ccccc2)c(Cl)c1C(=O)Nc1cccc(C(F)(F)F)c1
class: label 0

structure.smiles.string: CC(C)C(=O)Nc1sc2c(c1-c1nc3ccccc3s1)CCN(C)C2
class: label 1

structure.smiles.string: COc1ccccc1-c1noc(CSc2nnc(-c3ccc4c(c3)OCO4)o2)n1
class: label 1

structure.smiles.string: O=C(O)c1sc2cc(Cl)ccc2c1Cl
class: label 1

structure.smiles.string: CC(=NN=c1sc2ccccc2n1C)c1ccccc1Br
class: label 0

structure.smiles.string: O=C(NC1=NCCS1)c1sc2cc(F)ccc2c1Cl
class: label 0

structure.smiles.string: O=C(NS(=O)(=O)c1ccc(Cl)s1)c1sc2cc(Cl)ccc2c1Cl
class: label 1

structure.smiles.string: Cn1c(=NN=C2CCCc3ccccc32)sc2ccccc21
class: label 1

structure.smiles.string: CCc1c(C)nc(-n2nc(C)cc2NC(=O)C23CC4CC(CC(C4)C2)C3)[nH]c1=O
class: label 0

structure.smiles.string: CCCc1cc(=O)[nH]c(-n2nc(C)cc2NC(=O)C23CC4CC(CC(C4)C2)C3)n1
class: label 1

structure.smiles.string: CN(C)N=CC=C1CCC(=Cc2ccc(C(F)(F)F)cc2)C1=O
class: label 0

structure.smiles.string: Cc1cc(=O)[nH]c(-n2nc(C)cc2NC(=O)C23CC4CC(CC(C4)C2)C3)n1
class: label 1

structure.smiles.string: S=c1[nH]nc(-c2ccccc2)c2ccccc12
class: label 1

structure.smiles.string: Cc1nc(-c2cccs2)cc([C@H]2CN3CC[C@H]2C[C@@H]3CNC(=O)Nc2cccc(C(F)(F)F)c2)n1
class: label 1

structure.smiles.string: CC(=O)Nc1sc2c(c1-c1nc3ccccc3s1)CCN(C(C)C)C2
class: label 1

structure.smiles.string: CC(C)C(=O)Nc1sc2c(c1-c1nc3ccccc3s1)CCN(C(C)C)C2
class: label 1

structure.smiles.string: O=C(c1ccc([N+](=O)[O-])cc1)N1CCN(c2nc(-c3ccccc3)c3cc(Cl)ccc3n2)CC1
class: label 1

structure.smiles.string: CC1=CC(=NNc2ncc(Cl)cc2Cl)CC(C)(C)C1
class: label 0

structure.smiles.string: O=C(O)c1sc(Cl)cc1/C=C\c1ccccc1
class: label 0

Values from PubChem BioAssay AID1259343
